system: NCI-H322M lung; test: NCI-60 one-dose screen, 48 h; conditions: 10 µM unless noted
Compounds without any hit were thinned out: in the full panel of roughly 83,000, 20% have a hit. Activity calls are given as the source filed them. How the source made its calls: active means growth percent below 10; inactive means the rest.
The reply should be one of these categories: t (active), f (inactive)

Q. Tell me the recorded outcome of this test for Cn1cc(-c2ccc3cc(-c4ccc(CC(=O)Nc5cc(C(C)(C)C)nn5C)cc4)cnc3c2)cn1 .
A. f

Q. Tell me the recorded outcome of this test for O=C(CCc1nnc(-c2c(Cl)cccc2Cl)o1)c1nc2ccccc2[nH]1 .
A. f

Q. Tell me the recorded outcome of this test for Cc1ccc2sc3c(NCCN)nc4ccccc4c3c(=O)c2c1 .
A. f

Q. Tell me the recorded outcome of this test for COc1ccc(C(=O)/C=C/c2sc(Cl)nc2Cl)cc1 .
A. f

Q. Tell me the recorded outcome of this test for COc1ccc(NC(=O)n2nc(/C=C\c3ccc(O)c(OC)c3)cc2/C=C\c2ccc(O)c(OC)c2)cc1 .
A. f

Q. Tell me the recorded outcome of this test for COc1ccc2nc(NC(=O)c3cccnc3Nc3ccc(S(N)(=O)=O)cc3)sc2c1 .
A. f

Q. Tell me the recorded outcome of this test for O=C(Nn1c(NCC(=O)N2c3ccccc3Sc3ccccc32)nnc1-c1ccc(O)cc1)c1ccccc1 .
A. f

Q. Tell me the recorded outcome of this test for CC1=C(SCCC(=O)OC(C[Se]C2=C(C)C(=O)c3ccccc3C2=O)C(=O)NC(C)(C)C)C(=O)c2ccccc2C1=O (centres undefined) .
A. t

Q. Tell me the recorded outcome of this test for Clc1ccc(C(/C=C/c2sc(Cl)nc2Cl)=N/Nc2cc(Cl)cc(Cl)c2)cc1 .
A. f
